target-system: Receptor-interacting protein kinase 1 (RIPK1) (Homo sapiens, UniProt Q13546)
Construct: with VHL
Sequence (Q13546 whole entry): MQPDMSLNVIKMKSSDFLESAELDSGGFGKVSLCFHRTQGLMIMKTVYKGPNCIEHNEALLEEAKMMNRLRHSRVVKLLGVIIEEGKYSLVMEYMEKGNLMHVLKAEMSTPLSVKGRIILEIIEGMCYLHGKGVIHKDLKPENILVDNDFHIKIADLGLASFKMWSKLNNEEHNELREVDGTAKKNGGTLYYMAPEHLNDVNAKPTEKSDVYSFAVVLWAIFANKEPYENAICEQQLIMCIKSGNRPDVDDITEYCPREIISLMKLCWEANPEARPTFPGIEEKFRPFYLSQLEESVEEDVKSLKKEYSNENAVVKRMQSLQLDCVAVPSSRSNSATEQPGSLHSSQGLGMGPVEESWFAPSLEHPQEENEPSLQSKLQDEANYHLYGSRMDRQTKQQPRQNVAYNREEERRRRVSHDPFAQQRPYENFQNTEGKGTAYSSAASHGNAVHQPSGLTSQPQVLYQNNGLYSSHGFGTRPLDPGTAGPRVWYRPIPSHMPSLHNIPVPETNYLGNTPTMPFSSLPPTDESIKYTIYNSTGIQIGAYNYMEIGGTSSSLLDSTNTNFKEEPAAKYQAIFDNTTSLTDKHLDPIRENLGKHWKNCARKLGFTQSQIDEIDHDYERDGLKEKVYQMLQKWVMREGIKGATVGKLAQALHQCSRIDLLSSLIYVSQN
Sequence (P40337 whole entry partner): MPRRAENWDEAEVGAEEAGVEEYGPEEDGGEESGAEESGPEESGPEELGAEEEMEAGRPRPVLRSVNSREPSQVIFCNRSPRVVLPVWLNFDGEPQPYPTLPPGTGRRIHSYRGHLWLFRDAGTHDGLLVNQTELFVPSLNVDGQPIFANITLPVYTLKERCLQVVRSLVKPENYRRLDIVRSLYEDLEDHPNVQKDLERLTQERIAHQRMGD
assay-method-text: cell-based
Design: HiBiT luminescence of CRISPR-tagged endogenous RIPK1 (C-terminal HiBiT) after PROTAC treatment; degradation DC50 and Dmax
condition-summary: HEK293T-RIPK1-HiBiT cells; read-out: Dmax (HEK293T-RIPK1-HiBiT cell line)

chem-smiles | Dmax
Cc1ncsc1-c1ccc([C@H](C)NC(=O)[C@@H]2C[C@@H](O)CN2C(=O)[C@@H](NC(=O)COCCOCCOc2ccc(CNC(=O)Cn3cc(-c4cnc(N)c5c(-c6ccc7c(c6)CCN7C(=O)Cc6ccccc6)csc45)cn3)cc2)C(C)(C)C)cc1 | 93%
Cc1ncsc1-c1ccc([C@H](C)NC(=O)[C@@H]2C[C@@H](O)CN2C(=O)[C@@H](NC(=O)CN2CCN(CC3CCN(CC4CCN(C(=O)Cn5cc(-c6cnc(N)c7c(-c8ccc9c(c8)CCN9C(=O)Cc8ccccc8)csc67)cn5)CC4)CC3)CC2)C(C)(C)C)cc1 | 93%
Cc1ncsc1-c1ccc([C@H](C)NC(=O)[C@@H]2C[C@@H](O)CN2C(=O)[C@@H](NC(=O)COc2ccc(CCNC(=O)Cn3cc(-c4cnc(N)c5c(-c6ccc7c(c6)CCN7C(=O)Cc6ccccc6)csc45)cn3)cc2)C(C)(C)C)cc1 | 95%
